The reported numbers originate from patent US12455279B2.

System: PD-1 expressing smaller non-proliferating CD3+ normal human T cells
Experiment: PD-1 expression on smaller non-proliferating T cells (FSC/SSC gating), 1 Hr treatment
Assay type: cell-based
Settings: 10−8M
Protocol: Peripheral blood lymphocytes (PBLs) were separated from normal human leukocytes of healthy donors by Ficol separation and CD3 positive T cells were separated by anti-CD3 antibody-coupled magnetic beads. […] The cells were usually maintained for, for on average 24 hours after their separation before various molecules were added and their effects on the T cells were measured. […] As such, the expression of PD-1 on the surface of these treated and untreated T cells was monitored. […]
Parameter measured: % of smaller T cells expressing PD-1

>  <Compound>
Oc1cc2c(cc1O)C(c1ccccc1)CNCC2 (stereo not shown) [SKF38393]

>  <Data value>
36.7%

$$$$
>  <Compound>
NCCc1ccc(O)c(O)c1 [Dopamine]

>  <Data value>
40.4%

$$$$
>  <Compound>
NC[C@@H]1O[C@H](C23CC4CC(CC(C4)C2)C3)Cc2c1ccc(O)c2O [A77636]

>  <Data value>
40.8%

$$$$
>  <Compound>
N[C@@H](CCC(=O)O)C(=O)O [Glutamate]

>  <Data value>
32.8%

$$$$
>  <Compound>
CN[C@@H]1Cc2cccc3[nH]c(=O)n(c23)C1 [Sumanirole]

>  <Data value>
36.2%

$$$$
>  <Compound>
CCCN1CCO[C@@H]2c3cc(O)ccc3OC[C@H]21 [PD 128907]

>  <Data value>
38.4%

$$$$
>  <Compound>
Cc1cccc(C(=O)NCN2CCN(c3ccccc3C#N)CC2)c1 [PD168077]

>  <Data value>
40.3%

$$$$
